Reference for the values: patent US20140378460A1

# Test system: Abeta oligomer-induced membrane trafficking deficits in primary hippocampal neurons
# EXPERIMENT_NOTES: Membrane trafficking/exocytosis (MTT) assay
# Assay type: cell-based, rat
# TEST_CONTEXT: Rattus norvegicus, Hippocampal neuron, Table 11A; read-out: Block Aβ-induced membrane trafficking deficits EC50
VALUE_TYPE: pEC50
// scale note: pEC50 = -log10(conc_M); give the bare number

**Q:** Fill in the blank: the reported pEC50 of COc1cc(CCC(C)NCc2ccc(C(F)(F)F)cc2)ccc1O (stereo not shown) [Compound II] is ____.
**A:** 5.66

* * *

# EXPERIMENT_NOTES: in vivo
# TEST_CONTEXT: male, C57BL/6, mouse, sc, 10 mg/kg
# Text: A plasma calibration curve was generated. Subcutaneous compound administration was accomplished by […]. Per oral administration was accomplished by gastric gavage. Intravenous administration was accomplished via jugular catheter. A brain calibration curve was generated.
VALUE_TYPE: Tmax

**Q:** Fill in the blank: the reported Tmax of COc1cc(CCC(C)NCc2ccc(C(F)(F)F)cc2)ccc1O (stereo not shown) [Compound II] is ____.
**A:** 30 min
